Test system: HOP-62 NSCLC
assayProtocol: NCI-60 one-dose screen, 48 h (100 = growth as untreated, 0 = no growth, -100 = all killed)
measurementSetup: 10 µM unless noted
About 83,000 compounds went through this panel and 20% of them were active in at least one assay; those are over-represented in the sample as a whole.
// reported growth per item
property: growth (%)

- querySmiles: "COc1cc(/C=C\\c2cc(/C=C\\c3ccc(O)c(OC)c3)n(C(=O)CNc3ccccc3OC)n2)ccc1O"
  testResult: 86.4
- querySmiles: "Oc1ccccc1/C=N/c1ccccn1"
  testResult: 112
- querySmiles: "O[C@@H]1CCO[C@H](c2ccc3ccccc3c2)C1"
  testResult: 99.5
- querySmiles: "COc1ccc(Cl)cc1NC(=O)c1cc2c([nH]1)-c1nc(NC(=O)C(C)C)sc1CC2"
  testResult: 75.3

---

Tested on: NCI-H226 lung
assayProtocol: NCI-60 one-dose screen, 48 h (100 = growth as untreated, 0 = no growth, -100 = all killed)
measurementSetup: 10 µM unless noted
Method: Growth inhibition of the NCI-H226 human Non-Small Cell Lung tumor cell line is measured as a screen for anti-cancer activity. Cells are grown in 96 well plates and exposed to the test compound for 48 hours. Compounds are tested at a single concentration, which is 10^-5 M for most compounds. The reported endpoint is percent growth (GI% or GIPRCNT), where numbers from 0 - 100% represent growth inhibition, and numbers from -100% - 0 represent cell death. […]
The panel holds about 83,000 compounds, 20% with a hit somewhere; the sample as a whole holds those more often. Activity calls are given as the source filed them. Rule for the calls: active = growth percent below 10; inactive = the rest.
growth values, listed per item

- querySmiles: "O=C(Nc1ccc(-n2cc(-c3ccncc3)c(-c3ccc(O)c(Cl)c3)n2)cc1)Nc1cccc(Cl)c1Cl"
  growth: "73.7% (inactive)"
- querySmiles: "COc1cc(/C=C/C(=O)N2CCC=CC2=O)cc(OC)c1OC"
  growth: "109% (inactive)"
- querySmiles: "O=C(c1ccccc1)[C@H]1[C@@H]2CCCN2[C@]2(C(=O)Nc3ccc(F)cc32)[C@]12C(=O)Nc1ccccc12"
  growth: "79.3% (inactive)"
- querySmiles: "Cl[C@@H]1CCO[C@H](c2cc3ccccc3c3ccccc23)C1"
  growth: "89.8% (inactive)"
- querySmiles: "COc1cc(-c2nc(N)n(CC(=O)Nc3ccc(/C(C)=N\\O)cc3)n2)cc(OC)c1OC"
  growth: "94.8% (inactive)"

---

Tested on: OVCAR-5 ovarian
assayProtocol: NCI-60 one-dose screen, 48 h (100 = growth as untreated, 0 = no growth, -100 = all killed)
measurementSetup: 10 µM unless noted
About 83,000 compounds went through this panel and 20% of them were active in at least one assay; those are over-represented in the sample as a whole.
Listed compounds paired with reported growth

- querySmiles: "CCc1c(C)c2cc(-n3c(-c4ccc(OC)cc4)csc3=N)c(O)c(C)c2oc1=O"
  growth (%): 44
- querySmiles: "COc1cc(C(=O)NNC(=O)c2ccccc2O)cc(OC)c1OC"
  growth (%): 103
- querySmiles: "C/C(=N/NC(=O)Cn1c2ccccc2c2ccncc21)c1cccs1"
  growth (%): 112
- querySmiles: "CN(C)c1ccc(/C=N/n2c(-c3cc(F)c(Cl)cc3Cl)nn(CN3CCOCC3)c2=S)cc1"
  growth (%): 92.8

---

Tested on: OVCAR-3 ovarian
assayProtocol: NCI-60 one-dose screen, 48 h
measurementSetup: 10 µM unless noted
About 83,000 compounds went through this panel and 20% of them were active in at least one assay; those are over-represented in the sample as a whole. Calls of active or inactive are those of the source. Rule for the calls: active = growth percent below 10; inactive = the rest.
Labels: true = active, false = inactive

- molecule: "Nc1ccc(S(=O)(=O)Nc2ccnn2-c2ccccc2)cc1"
  measurementTarget: "OVCAR-3 ovarian"
  answerLabel: "false"
- molecule: "O=c1c(-c2ccc3c(c2)OCO3)coc2c(CO)c(O)ccc12"
  measurementTarget: "OVCAR-3 ovarian"
  answerLabel: "true"
- molecule: "CCn1cc(C(=O)O)c(=O)c2cc(F)c(N3CCN(CC(=O)Nc4ccc(C(C)=O)cc4)CC3)cc21"
  measurementTarget: "OVCAR-3 ovarian"
  answerLabel: "false"
- molecule: "O=C(Cn1c2ccccc2c2ccncc21)N/N=C/c1c[nH]c2ccccc12"
  measurementTarget: "OVCAR-3 ovarian"
  answerLabel: "false"
- molecule: "CCCCOc1nc2ccc(Cl)cc2cc1/C=C/C(=O)/C=C/c1ccc(Cl)cc1"
  measurementTarget: "OVCAR-3 ovarian"
  answerLabel: "false"
- molecule: "O=C(O)c1ccc(-n2cc(/C=N/Nc3ccc(Cl)cc3)c(-c3ccc(F)c(F)c3)n2)cc1"
  measurementTarget: "OVCAR-3 ovarian"
  answerLabel: "false"
- molecule: "CCOC(=O)C1=C(N)Oc2cc(OC)ccc2C1c1ccc(F)c(F)c1 (stereo not given)"
  measurementTarget: "OVCAR-3 ovarian"
  answerLabel: "false"
- molecule: "COc1ccc(CNc2nc3ccccc3c3c(=O)c4ccccc4sc23)cc1OC"
  measurementTarget: "OVCAR-3 ovarian"
  answerLabel: "false"
- molecule: "COc1ccccc1S(=O)(=O)Nc1ccc2c3c(cc(-c4cnn(C5CC5)c4)nc13)C(=O)N2C"
  measurementTarget: "OVCAR-3 ovarian"
  answerLabel: "false"
- molecule: "CCCC(=O)Oc1ccc(/C(=C(\\C)c2ccc(Cl)cc2)c2ccc(OCCN(CC)CC)cc2)cc1"
  measurementTarget: "OVCAR-3 ovarian"
  answerLabel: "true"
- molecule: "O=C(NCCNc1nccc(-c2c(-c3cccc(O)c3)nc3sccn23)n1)c1ccccc1O"
  measurementTarget: "OVCAR-3 ovarian"
  answerLabel: "false"
- molecule: "COc1ccc(-c2ccc(NC(=O)Nc3ccc(Cl)c(C(F)(F)F)c3)c(C)n2)cc1"
  measurementTarget: "OVCAR-3 ovarian"
  answerLabel: "false"
- molecule: "CN(C)CCNc1nc2ccccc2c2c(=O)c3ccccc3sc12"
  measurementTarget: "OVCAR-3 ovarian"
  answerLabel: "false"
- molecule: "COc1ccccc1S(=O)(=O)Nc1ccc2c3c(cc(-c4cnn(C)c4)nc13)C(=O)N2C"
  measurementTarget: "OVCAR-3 ovarian"
  answerLabel: "false"
- molecule: "COc1ccccc1C(OC(C)=O)OC(C)=O"
  measurementTarget: "OVCAR-3 ovarian"
  answerLabel: "false"
- molecule: "O=C1CCC(=O)N1C1CCCCC1"
  measurementTarget: "OVCAR-3 ovarian"
  answerLabel: "false"
- molecule: "Nc1nccc2c1ccn2-c1ccc(NC(=O)Nc2cccc(C(F)(F)F)c2)cc1"
  measurementTarget: "OVCAR-3 ovarian"
  answerLabel: "false"
- molecule: "CCc1c2cc(Cl)ccc2n2cc(Cc3ccccc3)[nH]c(=O)c12"
  measurementTarget: "OVCAR-3 ovarian"
  answerLabel: "false"
- molecule: "COc1ccccc1NC(=O)COc1ccc(/C=C2/Oc3cc4occc4c(OC)c3C2=O)cc1OC"
  measurementTarget: "OVCAR-3 ovarian"
  answerLabel: "false"
- molecule: "Nc1nccc2c1ccn2-c1cccc(NC(=O)c2ccc(N3CCOCC3)c(C(F)(F)F)c2)c1"
  measurementTarget: "OVCAR-3 ovarian"
  answerLabel: "true"

---

Test system: MCF7 breast
assayProtocol: NCI-60 one-dose screen, 48 h
measurementSetup: 10 µM unless noted
About 83,000 compounds went through this panel and 20% of them were active in at least one assay; those are over-represented in the sample as a whole. The source made the active and inactive calls. The calls were made as follows: active = growth percent below 10; inactive = the rest.
Outcome codes: y = active, n = inactive

- compound: "Nc1nc(Nc2ccc(OCc3cccc(F)c3)cc2)c2c(n1)[nH]c1ccc(O)cc12"
  answerLabel: "y"
- compound: "CCC1S/C(=N\\N=C(/C)c2ccco2)N(c2ccccc2)C1=O (configuration not stated)"
  answerLabel: "n"
- compound: "O=[N+]([O-])c1ccccc1NC1c2ccccc2Oc2ccccc21"
  answerLabel: "n"
- compound: "COc1ccc(-c2nn(-c3ccc(NC(=O)Nc4ccc(Cl)c(C(F)(F)F)c4)cc3)cc2-c2ccncc2)cc1Cl"
  answerLabel: "y"
- compound: "COc1cc(Br)c(-c2nc(-c3ccccc3)c(-c3ccccc3)n2Cc2ccccc2)cc1OC"
  answerLabel: "n"
- compound: "COc1ccc(-c2nn(-c3ccc(NC(=O)Nc4cc(C(F)(F)F)cc(C(F)(F)F)c4)cc3)cc2-c2ccncc2)cc1Cl"
  answerLabel: "n"
- compound: "C=C1C(=O)O[C@H]2[C@H]1CC/C(COC(=O)c1cccc3ccccc13)=C\\CC[C@@]1(C)O[C@@H]21"
  answerLabel: "y"
- compound: "COc1ccc(/C=C/C(=O)c2ccc(-n3cc(CN4CCN(c5cc6c(cc5F)c(=O)c(C(=O)O)cn6C5CC5)CC4)nn3)cc2)cc1OC"
  answerLabel: "n"
- compound: "CN1CCN(CC(=O)N(C)c2ccc(N=C(c3ccccc3)c3c(O)[nH]c4ccc(C#N)cc34)cc2)CC1"
  answerLabel: "n"
- compound: "CC/C(=C(\\CC)c1ccc(OCCN(CC)CC)cc1)c1ccc(OCCN(CC)CC)cc1"
  answerLabel: "n"
- compound: "O=C(Nc1ccc(F)cc1)Nc1ccc(Br)c(C(F)(F)F)c1"
  answerLabel: "y"
- compound: "c1nc(SC2=NCCN2)c2[nH]cnc2n1"
  answerLabel: "n"
- compound: "COc1cc2ncnc(Oc3ccc(NC(=O)Nc4ccc(CN5CCOCC5)c(C(F)(F)F)c4)c4ccccc34)c2cc1OC"
  answerLabel: "y"
- compound: "N#Cc1c(N)nc2c(c1N)C(c1ccc(Cl)cc1)C1=C(CCCC1=O)N2c1sc2c(c1C#N)CCCC2 (configuration not stated)"
  answerLabel: "n"
- compound: "CN(C)CCS(=O)(=O)Nc1cc(-c2ccc3ncnc(Nc4ccc(F)c(Cl)c4)c3c2)cnc1Cl"
  answerLabel: "y"
- compound: "Nc1nc(-c2cc3c(cc2Cl)NC(=O)/C3=C/c2ccc(Cl)cc2)cs1"
  answerLabel: "n"
- compound: "C=C1c2c(Cl)ccc(O)c2C(O)=C2C(=O)[C@]3(O)C(O)=C(C(N)=O)C(=O)[C@@H](N(C)C)[C@@H]3[C@@H](O)[C@H]12"
  answerLabel: "n"
- compound: "COc1ccc(/C=C2/C(=O)Nc3cc(Cl)c(-c4csc(N)n4)cc32)cc1"
  answerLabel: "n"
- compound: "COc1ccccc1C(OC(C)=O)OC(C)=O"
  answerLabel: "n"
- compound: "COc1cc2nc(C(=O)N3CCCCC3)cc(Nc3ccccc3)c2cc1OC"
  answerLabel: "n"
- compound: "Nc1ncc(-c2ccc3ncnc(Nc4ccc(F)c(Cl)c4)c3c2)cn1"
  answerLabel: "n"
- compound: "Cc1nccc2c3ccc(OCc4cn(-c5ccc(Br)cc5)nn4)cc3n(CCCc3ccccc3)c12"
  answerLabel: "n"
- compound: "COc1ccc2c(c1)C(=O)/C(=C/c1ccc(OCC(=O)c3ccc(Cl)cc3)cc1)O2"
  answerLabel: "n"
- compound: "Cc1ncc(CO)c(C(=O)O)c1O"
  answerLabel: "n"
- compound: "COC(=O)c1ccc2c(c1)Oc1ccc(Cl)cc1-c1cc(C)nn1-2"
  answerLabel: "n"
- compound: "Nc1nc(Cl)c2c(C(F)(F)F)cn(CC3CCNCC3)c2n1"
  answerLabel: "n"
- compound: "COc1ccc2c(c1)/C(=C/c1c(-c3cc(OC)c(OC)c(OC)c3Br)nc3sccn13)C(=O)N2"
  answerLabel: "n"
- compound: "OC[C@@H](O)C(O[C@@H]1O[C@H](CO)[C@H](O)[C@H](O)[C@H]1O)[C@H](O)[C@@H](O)CO (some centres not stated)"
  answerLabel: "n"
- compound: "O=C(N/N=C/c1ccccc1O)c1ccccc1O"
  answerLabel: "n"
- compound: "O=C(NCCNc1nccc(-c2c(-c3cccc(O)c3)nc3sccn23)n1)c1ccccc1"
  answerLabel: "n"
- compound: "CCOC(=O)NNc1nncc2ccccc12"
  answerLabel: "n"
- compound: "C[C@@H]1CC2C3C[C@H](F)C4=CC(=O)C=C[C@]4(C)[C@@]3(F)[C@@H](O)C[C@]2(C)[C@@]1(O)C(=O)CO (some centres not stated)"
  answerLabel: "n"
